Values from patent US20230091225A1

target: androgen receptor (AR) (Homo sapiens); assay: Degradation of androgen receptor (AR) protein in VCaP cells by ELISA; type: cell-based; details: VCaP
Sequence (P10275 whole entry): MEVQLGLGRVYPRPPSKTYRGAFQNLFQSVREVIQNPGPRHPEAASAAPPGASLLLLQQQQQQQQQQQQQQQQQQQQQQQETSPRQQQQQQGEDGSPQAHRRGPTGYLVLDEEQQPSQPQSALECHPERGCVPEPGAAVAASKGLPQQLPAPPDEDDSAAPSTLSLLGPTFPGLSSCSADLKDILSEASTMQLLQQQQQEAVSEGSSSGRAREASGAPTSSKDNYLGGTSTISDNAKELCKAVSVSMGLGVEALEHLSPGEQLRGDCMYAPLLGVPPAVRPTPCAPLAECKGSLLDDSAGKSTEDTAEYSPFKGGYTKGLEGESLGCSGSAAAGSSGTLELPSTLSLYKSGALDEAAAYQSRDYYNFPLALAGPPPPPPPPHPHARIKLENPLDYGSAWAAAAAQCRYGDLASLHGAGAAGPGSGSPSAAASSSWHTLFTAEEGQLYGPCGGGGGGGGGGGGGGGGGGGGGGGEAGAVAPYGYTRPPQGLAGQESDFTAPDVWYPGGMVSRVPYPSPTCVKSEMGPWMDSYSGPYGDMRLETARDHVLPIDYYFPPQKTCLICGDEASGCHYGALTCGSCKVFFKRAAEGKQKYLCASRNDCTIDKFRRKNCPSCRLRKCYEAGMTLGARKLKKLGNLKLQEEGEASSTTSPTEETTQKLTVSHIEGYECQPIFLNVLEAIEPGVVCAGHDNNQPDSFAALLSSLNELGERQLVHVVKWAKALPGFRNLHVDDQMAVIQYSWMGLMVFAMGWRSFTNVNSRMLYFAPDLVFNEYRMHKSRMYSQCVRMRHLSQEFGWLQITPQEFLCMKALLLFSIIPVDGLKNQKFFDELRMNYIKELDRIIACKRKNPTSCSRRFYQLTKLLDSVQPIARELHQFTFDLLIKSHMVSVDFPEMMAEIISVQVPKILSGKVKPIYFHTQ
observable: Dmax

molecule: N#Cc1ccc(O[C@H]2CC[C@H](NC(=O)c3cnc(N4CC5(CCN(C6CCN(c7cc8c(cc7F)C(=O)N(C7CCC(=O)NC7=O)C8=O)CC6)C5)C4)cn3)CC2)cc1Cl (some centres unmarked)
observable: Dmax
result: > 80%
--
molecule: N#Cc1ccc(O[C@H]2CC[C@H](NC(=O)c3cnc(N4CC5(CCN(C6CCN(c7cc8c(cc7F)C(=O)N(C7CCC(=O)NC7=O)C8=O)CC6)CC5)C4)nc3)CC2)cc1Cl (some centres unmarked)
observable: Dmax
result: 60 to 80%
--
molecule: N#Cc1ccc(O[C@H]2CC[C@H](NC(=O)c3ccc(N4CCC(CN5CC6(C5)CN(c5ccc7c(c5)C(=O)N(C5CCC(=O)NC5=O)C7=O)C6)CC4)nn3)CC2)cc1Cl (some centres unmarked)
observable: Dmax
result: > 80%
--
molecule: [2H]C([2H])([2H])N(C(=O)c1ccc(N2CCC(CN3CCN(c4cc5c(cc4F)C(=O)N(C4CCC(=O)NC4=O)C5=O)CC3)CC2)nn1)[C@H]1CC[C@H](Oc2ccc(C#N)c(Cl)c2)CC1 (some centres unmarked)
observable: Dmax
result: < 40%
--
molecule: N#Cc1ccc(O[C@H]2CC[C@H](NC(=O)c3cnc(N4CCC(CN5CCC6(CC5)CN(c5ccc7c(c5)C(=O)N(C5CCC(=O)NC5=O)C7=O)C6)CC4)nn3)CC2)cc1Cl (some centres unmarked)
observable: Dmax
result: > 80%

====

molecular target: androgen receptor (AR) (Homo sapiens); test: Degradation of androgen receptor (AR) protein in VCaP cells by Western blot; format: cell-based; details: percentage of degraded AR at 100 nM, VCaP cells, 16 h

compound: N#Cc1ccc(O[C@H]2CC[C@H](NC(=O)c3ccc(N4CCC(CN5CCC6(CC5)CN(c5cc7c(cc5F)C(=O)N(C5CCC(=O)NC5=O)C7=O)C6)CC4)nn3)CC2)cc1Cl (stereo partly shown) [Compound 231]
inhibition at 0.1 µM: > 80%
--
compound: N#Cc1ccc(O[C@H]2CC[C@H](N3Cc4nc(N5CCC(CN6CCC(Nc7ccc8c(c7)C(=O)N(C7CCC(=O)NC7=O)C8=O)CC6)CC5)ccc4C3=O)CC2)cc1Cl (stereo partly shown) [Compound 173]
inhibition at 0.1 µM: < 25%
--
compound: N#Cc1ccc(O[C@H]2CC[C@H](NC(=O)c3ccc(N4CC5CN(C6CCN(c7cc8c(cc7F)C(=O)N(C7CCC(=O)NC7=O)C8=O)CC6)CC5C4)nn3)CC2)cc1Cl (stereo partly shown) [Compound 67]
inhibition at 0.1 µM: < 25%
--
compound: N#Cc1ccc(O[C@H]2CC[C@H](NC(=O)c3cnc(N4CCC5(CC4)CN(C4CCN(c6cc7c(cc6F)C(=O)N(C6CCC(=O)NC6=O)C7=O)CC4)C5)cn3)CC2)cc1Cl (stereo partly shown) [Compound 289]
inhibition at 0.1 µM: > 80%
--
compound: N#Cc1ccc(O[C@H]2CC[C@H](NC(=O)c3ccc(N4CCC(CN5CCC(Nc6ccc7c(c6)C(=O)N(C6CCC(=O)NC6=O)C7=O)CC5)CC4)nn3)CC2)cc1Cl (stereo partly shown) [Compound 143]
inhibition at 0.1 µM: > 80%
--
compound: CC1(C)[C@H](Oc2ccc(C#N)c(Cl)c2)C(C)(C)[C@H]1N1Cc2nc(C#CC3CCN(CC4CN(c5cc6c(cc5F)C(=O)N(C5CCC(=O)NC5=O)C6=O)C4)CC3)ccc2C1=O (stereo partly shown) [Compound 334]
inhibition at 0.1 µM: > 80%
--
compound: N#Cc1ccc(O[C@H]2C[C@@H]3CN(C(=O)c4ccc(N5CCC(CN6CCN(c7ccc8c(c7)C(=O)N(C7CCC(=O)NC7=O)C8=O)CC6)CC5)nn4)C[C@@H]3C2)cc1Cl (stereo partly shown) [Compound 175]
inhibition at 0.1 µM: < 25%
--
compound: N#Cc1ccc(O[C@H]2CC[C@H](NC(=O)c3ccc(N4CC5CN(CC6CCN(c7cc8c(cc7F)C(=O)N(C7CCC(=O)NC7=O)C8=O)CC6)CC5C4)nn3)CC2)cc1Cl (stereo partly shown) [Compound 259]
inhibition at 0.1 µM: > 80%
--
compound: N#Cc1ccc(O[C@H]2CC[C@H](NC(=O)c3ccc(N4CCC(CN5CCC6(C5)CN(c5ccc7c(c5)C(=O)N(C5CCC(=O)NC5=O)C7=O)C6)CC4)nn3)CC2)cc1Cl (stereo partly shown) [Compound 185]
inhibition at 0.1 µM: > 80%
--
compound: CC1(C)[C@H](Oc2ccc(C#N)c(Cl)c2)C(C)(C)[C@H]1N1Cc2nc(C#CC3CCN(C4CCN(c5ccc6c(c5)C(=O)N(C5CCC(=O)NC5=O)C6=O)CC4)CC3)ccc2C1=O (stereo partly shown) [Compound 315]
inhibition at 0.1 µM: < 25%
